# System: CP315
# procedure.summary: qHTS profiling for inhibitors of Plasmodium falciparum proliferation (AID 504749); further: nearly all actives have a fitted effect of over 60% in size
# condition.set: P. falciparum in erythrocytes, SYBR Green DNA, 72 h; series mostly up to 28.7 µM
Results filed as inconclusive are left out. Calls of active or inactive are those of the source. The call rests on the fitted dose curve; in most records, active means well fitted inhibition curve with a large enough effect; inconclusive means small, poorly fitted or top-dose-only effect; inactive means flat fitted curve, though single readings scatter.
Outcomes: y = active, n = inactive

{"compound": "O=C1CCC(c2ccccc2)(C2CCN(Cc3ccccc3)CC2)C(=O)N1 (stereo not given)", "label": "n"}
{"compound": "O=S(=O)(O)CC(S)CS (stereo not given)", "label": "n"}
{"compound": "Nc1ccc(N=Nc2ccccc2)c(N)n1", "label": "n"}
{"compound": "Cc1cc2nc3c(=O)[nH]c(=O)nc-3n(C[C@H](O)[C@H](O)[C@H](O)COP(=O)(O)OP(=O)(O)OC[C@H]3O[C@@H](n4cnc5c(N)ncnc54)[C@H](O)[C@@H]3O)c2cc1C", "label": "n"}
{"compound": "OCCCNc1ccccc1", "label": "n"}
{"compound": "OC/C=C/c1ccccc1", "label": "n"}
{"compound": "O=C1c2ccccc2C(=O)c2c1ccc(O)c2O", "label": "n"}
{"compound": "C[C@H](O)CN(C)C", "label": "n"}
{"compound": "CCCOC(=O)c1ccccc1O", "label": "n"}
{"compound": "CC(C)[C@@H](N)C(=O)O", "label": "n"}
{"compound": "C=CC[C@@H]1/C=C(\\C)C[C@H](C)C[C@H](OC)[C@H]2O[C@@](O)(C(=O)C(=O)N3CCCC[C@H]3C(=O)O[C@H](/C(C)=C/[C@@H]3CC[C@@H](O)[C@H](OC)C3)[C@H](C)[C@@H](O)CC1=O)[C@H](C)C[C@@H]2OC", "label": "y"}
{"compound": "CCOC(=S)SSC(=S)OCC", "label": "n"}
{"compound": "NC(=S)NS(=O)(=O)c1ccc(N)cc1", "label": "n"}
{"compound": "COc1ccccc1N1CCN(CCCC(=O)c2ccc(F)cc2)CC1", "label": "n"}
{"compound": "CCCCC/C=C\\C/C=C\\C/C=C\\CCCCC(=O)O", "label": "n"}
{"compound": "CC(C)NCC(O)COc1ccccc1-n1cccc1 (stereo not given)", "label": "n"}
{"compound": "O=C(O)c1ccc(OCCn2ccnc2)cc1", "label": "n"}
{"compound": "FC(F)(F)COCC(F)(F)F", "label": "n"}
{"compound": "[O]=[Bi][O]C(=O)[O][Bi]=[O]", "label": "n"}
{"compound": "CCCCCCCCCCCCCCCCCCCCCC(=O)Nc1ccn([C@@H]2O[C@H](CO)[C@@H](O)[C@@H]2O)c(=O)n1", "label": "n"}
{"compound": "O=C(O)c1cc(N=Nc2ccc(O)c(C(=O)O)c2)ccc1O", "label": "n"}
{"compound": "O=C(O)C1=C(CSc2nnnn2CS(=O)(=O)O)CS[C@@H]2[C@H](NC(=O)[C@H](O)c3ccccc3)C(=O)N12", "label": "n"}
{"compound": "CC(/C=C/C=C(\\C)C(=O)O[C@@H]1O[C@H](CO[C@@H]2O[C@H](CO)[C@@H](O)[C@H](O)[C@H]2O)[C@@H](O)[C@H](O)[C@H]1O)=C\\C=C\\C=C(C)\\C=C\\C=C(/C)C(=O)O[C@@H]1O[C@H](CO[C@@H]2O[C@H](CO)[C@@H](O)[C@H](O)[C@H]2O)[C@@H](O)[C@H](O)[C@H]1O", "label": "n"}
{"compound": "CC1CC(O)CC(C)(C)C1 (stereo not given)", "label": "n"}
{"compound": "CC1CCCCN1CCCOC(=O)c1ccccc1 (stereo not given)", "label": "n"}
{"compound": "Cn1c(=O)c2c(ncn2CCOC(=O)C(C)(C)Oc2ccc(Cl)cc2)n(C)c1=O", "label": "n"}
{"compound": "Oc1ccc(Cl)c2c1CCC2", "label": "n"}
{"compound": "C=CC(=O)O", "label": "n"}
{"compound": "CC1=C(/C=C/C(C)=C/C=C/C(C)=C/C(=O)Oc2c(C)c(C)c3c(c2C)CC[C@@](C)(CCC[C@H](C)CCC[C@H](C)CCCC(C)C)O3)C(C)(C)CCC1", "label": "n"}
{"compound": "O=C(c1cc2ccccc2o1)N1CCN(Cc2ccccc2)CC1", "label": "n"}
{"compound": "CCCCCCCCCCCCCCCCCC(=O)OCC(C)O (stereo not given)", "label": "n"}
{"compound": "COC(=O)C(CN)c1c[nH]c2ccc(OC)cc12 (stereo not given)", "label": "n"}
{"compound": "CC(C)CCC[C@@H](C)[C@H]1CC[C@H]2[C@@H]3CC=C4C[C@@H](O)CC[C@]4(C)[C@H]3CC[C@]12C", "label": "n"}
{"compound": "O=C1NCCN1c1ncc([N+](=O)[O-])s1", "label": "n"}
{"compound": "Cc1cc(C(=O)NCCc2ccc(S(=O)(=O)NC(=O)NN3CCCCCC3)cc2)no1", "label": "n"}
